All figures here come from patent US12318403B2.

- System: peripheral blood mononuclear cell (PBMC)
- assay-info: Peripheral blood mononuclear cell assay
- settings: read-out: PBMC EC50 TNF-α; compounds 1h, washed, 15 hour incubation; tumor necrosis factor-alpha level in medium; average of one to four donors
Provide the reported pEC50 of each item.
A value of pEC50 is the negative decimal logarithm of a concentration given in moles per litre.

Query (molecule): CC(C)(C)C(=O)OCOP1(=O)CO[C@H]2[C@@H](F)[C@H](n3cnc4c(N)ncnc43)O[C@@H]2COP(=O)(OCOC(=O)C(C)(C)C)O[C@@H]2[C@H](F)[C@@H](CO1)O[C@H]2n1cnc2c(=O)[nH]cnc21 (single isomer, unassigned) [Compound 77c] ; field requested: pEC50 5.43

Lookup CCCCCCCCCCCC(=O)OCSP1(=O)OC[C@H]2O[C@@H](n3cnc4c(N)ncnc43)[C@H](F)[C@@H]2OCP(=O)(O)OC[C@H]2O[C@@H](n3cnc4c(=O)[nH]cnc43)[C@H](O1)[C@@H]2F (single isomer, unassigned) [Compound 56a] 5.74

---

Provide the reported EC50 of each item.
- assayed-system: human wild type STING (WT STING) (Homo sapiens, UniProt Q86WV6, H232R)
- Sequence (Q86WV6 whole entry H232R): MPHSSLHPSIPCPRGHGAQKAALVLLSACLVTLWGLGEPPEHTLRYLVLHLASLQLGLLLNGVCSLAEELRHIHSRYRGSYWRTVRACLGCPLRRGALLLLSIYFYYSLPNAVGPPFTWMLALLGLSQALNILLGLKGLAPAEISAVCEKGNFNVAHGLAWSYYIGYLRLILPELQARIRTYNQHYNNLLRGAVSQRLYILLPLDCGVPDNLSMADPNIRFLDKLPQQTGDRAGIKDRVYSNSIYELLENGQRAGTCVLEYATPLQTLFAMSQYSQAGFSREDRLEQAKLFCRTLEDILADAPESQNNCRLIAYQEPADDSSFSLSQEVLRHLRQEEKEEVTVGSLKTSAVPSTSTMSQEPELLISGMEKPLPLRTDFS
- assay-info: 293T WT STING standard reporter assay
- Format: cell-based
- settings: 293T WT STING EC50, 293T wtSTING-FL cells; standard reporter assay without digitonin; 7 hours; ISRE firefly luciferase
The reply should be a number in nM, with the unit left off.

Which measured EC50 belongs to CCCCCCCCCCCC(=O)OCSP1(=O)CO[C@H]2[C@@H](F)[C@H](n3cnc4c(N)ncnc43)O[C@@H]2COP(=O)(SCOC(=O)CCCCCCCCCCC)O[C@@H]2[C@H](F)[C@@H](CO1)O[C@H]2n1cnc2c(=O)[nH]c(N)nc21 (single isomer, unassigned) [Compound 78c] , tested on human wild type STING (WT STING) (Homo sapiens, UniProt Q86WV6, H232R)? 60

Lookup CC(C)(C)C(=O)OCOc1ccc(CSP2(=O)CO[C@H]3[C@@H](F)[C@H](n4cnc5c(N)ncnc54)O[C@@H]3COP(=O)(O)O[C@@H]3[C@H](F)[C@@H](CO2)O[C@H]3n2cnc3c(=O)[nH]c(N)nc32)cc1 (single isomer, unassigned) [Compound 44a] 1900

---

- assayed-system: human wild type STING (WT STING) (Homo sapiens, UniProt Q86WV6, H232R)
- assay-info: 293T WT STING standard reporter assay
- Assay type: cell-based
- settings: 293T wtSTING-FL cells; standard reporter assay without digitonin; 7 hours; ISRE firefly luciferase; read-out: 293T WT STING EC50
quantity-measured: EC50 (µM)
The reply should be a number in µM, with the unit left off.

Query (molecule): Nc1nc2c(ncn2[C@@H]2O[C@@H]3COP(=O)(O)O[C@@H]4[C@H](O)[C@@H](COP(=O)(O)O[C@@H]2[C@@H]3O)O[C@H]4n2cnc3c(N)ncnc32)c(=O)[nH]1 [2′2′-cGAMP, reference compound] ; field requested: EC50 10.2

Lookup Nc1ncnc2c1ncn2[C@@H]1O[C@@H]2COP(=O)(O)O[C@H]3[C@@H](O)[C@H](n4cnc5c(N)ncnc54)O[C@@H]3COP(=O)(O)O[C@H]2[C@H]1O [3′3′-c-di-AMP, reference compound] 202

Lookup CC(C)(C)C(=O)OCOP1(=O)CO[C@H]2[C@@H](F)[C@H](n3cnc4c(N)ncnc43)O[C@@H]2COP(=O)(OCOC(=O)C(C)(C)C)O[C@@H]2[C@H](F)[C@@H](CO1)O[C@H]2n1cnc2c(N)ncnc21 (single isomer, unassigned) [Compound 81a] 0.05

---

Provide the reported pEC50 of each item.
- System: peripheral blood mononuclear cell (PBMC)
- assay-info: Peripheral blood mononuclear cell assay
- settings: read-out: PBMC EC50 TNF-α; compounds 1h, washed, 15 hour incubation; tumor necrosis factor-alpha level in medium; average of one to four donors
A value of pEC50 is the negative decimal logarithm of a concentration given in moles per litre.

Query (compound): CCCCCCCCCCCC(=O)OCSP1(=O)CO[C@H]2[C@@H](F)[C@H](n3cnc4c(N)ncnc43)O[C@@H]2COP(=O)(SCOC(=O)CCCCCCCCCCC)O[C@@H]2[C@H](F)[C@@H](CO1)O[C@H]2n1cnc2c(=O)[nH]c(N)nc21 (single isomer, unassigned) [Compound 78d] ; field requested: pEC50 6.10

Lookup CC(C)(C)C(=O)OCOP1(=O)CO[C@H]2[C@@H](F)[C@H](n3cnc4c(N)ncnc43)O[C@@H]2COP(=O)(OCOC(=O)C(C)(C)C)O[C@@H]2[C@H](F)[C@@H](CO1)O[C@H]2n1cnc2c(N)ncnc21 (single isomer, unassigned) [Compound 81b] 5.89

Lookup CC(C)(C)C(=O)OCOc1ccc(CSP2(=O)OC[C@H]3O[C@@H](n4cnc5c(N)ncnc54)[C@H](F)[C@@H]3OCP(=O)(O)OC[C@H]3O[C@@H](n4cnc5c(=O)[nH]c(N)nc54)[C@H](O2)[C@@H]3F)cc1 (single isomer, unassigned) [Compound 39b] 6.00
